measured on: UniProtKB P41144
Sequence (P41144 whole entry): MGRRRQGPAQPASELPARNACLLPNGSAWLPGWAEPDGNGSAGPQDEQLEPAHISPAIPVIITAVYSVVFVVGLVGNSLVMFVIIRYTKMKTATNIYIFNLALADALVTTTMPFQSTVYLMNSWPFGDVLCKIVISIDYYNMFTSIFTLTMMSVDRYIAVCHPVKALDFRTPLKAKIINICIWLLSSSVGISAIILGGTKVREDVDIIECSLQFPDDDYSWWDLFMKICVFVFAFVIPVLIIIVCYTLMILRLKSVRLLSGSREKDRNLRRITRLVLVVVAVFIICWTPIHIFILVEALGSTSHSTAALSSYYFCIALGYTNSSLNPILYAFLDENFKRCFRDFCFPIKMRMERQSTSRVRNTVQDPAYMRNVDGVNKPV
What IC50 was measured for each of the following?

CC[C@H](C)[C@@H]1NC(=O)[C@H](CCCN=C(N)N)NC(=O)[C@H](CCCN=C(N)N)NC(=O)[C@H](NC(=O)[C@H](Cc2ccccc2)NC(=O)CNC(=O)CNC(=O)[C@@H](N)Cc2ccc(O)cc2)C(C)(C)SSC(C)(C)[C@H](C(N)=O)NC(=O)[C@@H]2CCCN2C(=O)[C@H](CCCN=C(N)N)NC1=O	70.5 nM

-- ask Fill in the blank: the reported IC50 of CC[C@H](C)[C@@H]1NC(=O)[C@H](CCCN=C(N)N)NC(=O)[C@H](CCCN=C(N)N)NC(=O)[C@H](NC(=O)[C@H](Cc2ccccc2)NC(=O)CNC(=O)CNC(=O)[C@@H](N)Cc2ccc(O)cc2)C(C)(C)SSC(C)(C)[C@@H](C(N)=O)NC(=O)[C@@H]2CCCN2C(=O)[C@H](CCCN=C(N)N)NC1=O is ____.
-- reply 26.1 nM
